All figures here come from PubChem BioAssay AID248.

System: L1210 leukemia ip in BDF1 mice, survival T/C
Assay: NCI In Vivo Anticancer Drug Screen. Data for tumor model L1210 Leukemia (intraperitoneal) in B6D2F1 (BDF1) mice
Conditions: endpoint: mean survival time; dose: 12.5 mg/kg/injection; schedule: Q04DX003 (ip); vehicle: Klucel (hydroxypropylcellulose) (HPC); higher = longer survival
Inconclusive results and toxic doses are left out.
property-label: T/C

Items follow; give T/C for each.
1. C#CC[As+](c1ccccc1)(c1ccccc1)c1ccccc1
2. COc1ccc(C(=O)CBr)c(OC)c1C
3. N=C(N=Nc1c(O)[nH]c2ccccc12)N[N+](=O)[O-]
4. O=C1C(=Cc2ccc([N+](=O)[O-])cc2)C(=O)c2ccccc21
5. Cc1cc2nc(CBr)c(CBr)nc2cc1C
6. O=C1C(Cl)=C(Cl)C(Cl)(Cl)C1(Cl)Cl
7. c1ccc2c3csc4ccccc4c-3nc2c1

Response given:
102 % of control
100 % of control
100 % of control
97 % of control
101 % of control
98 % of control
94 % of control

---

Test system: L1210 leukemia ip in BDF1 mice, survival T/C
Assay: NCI In Vivo Anticancer Drug Screen. Data for tumor model L1210 Leukemia (intraperitoneal) in B6D2F1 (BDF1) mice
Settings: endpoint: mean survival time; dose: 100.0 mg/kg/injection; schedule: Q01DX009 (ip); vehicle: Klucel (hydroxypropylcellulose) (HPC); higher = longer survival
Description: The antitumor activity of compounds was measured in mice bearing transplantable tumors. Survival or tumor size were measured and the results are expressed as the measurement made in the treated group (T) divided by the measurement made in the vehicle treated control group (C). The tumor model used in this assay is L1210 Leukemia (intraperitoneal) in B6D2F1 (BDF1) mice
Toxic doses and inconclusive results are not listed.
Provide the recorded T/C for the entries that follow.

Record excerpt, results attached:
[[record]]
compound = "Cc1cccc(C)c1NC(=O)Oc1ccc(F)cc1Cl"
property_label = "T/C"
measurement = "110 % of control"

[[record]]
compound = "Cc1cc(/C=N/NC(=O)c2ccccc2NC(=O)c2ccccc2Cl)ccc1O"
property_label = "T/C"
measurement = "88 % of control"

[[record]]
compound = "CC1=CC(c2c(O)cccc2O)C(=C(C)C)CC1 (stereo unspecified)"
property_label = "T/C"
measurement = "95 % of control"

[[record]]
compound = "CS(=O)(=O)OC[C@@H]1C2C=CC(C2)[C@@H]1COS(C)(=O)=O"
property_label = "T/C"
measurement = "100 % of control"


Items follow; give T/C for each.
1. O=C1C=C(N2CCOCC2)c2cccc3cccc1c23
2. CN(Cc1cc(Cl)cc(Cl)c1O)C1CC2CCC1(C)C2(C)C (stereo unspecified)

Response given:
94 % of control
90 % of control

---

Tested on: L1210 leukemia ip in BDF1 mice, survival T/C
Test: NCI In Vivo Anticancer Drug Screen. Data for tumor model L1210 Leukemia (intraperitoneal) in B6D2F1 (BDF1) mice
Details: endpoint: mean survival time; dose: 75.0 mg/kg/injection; schedule: Q01DX009 (ip); vehicle: Klucel (hydroxypropylcellulose) (HPC); higher = longer survival
Inconclusive results and toxic doses are left out.
Provide the recorded T/C for the entries that follow.

[[record]]
molecule = "O=C(COc1ccc(Cl)c(Cl)c1)Nc1cccnc1"
target_system = "L1210 leukemia ip in BDF1 mice, survival T/C"
measurement = "104 % of control"


Items follow; give T/C for each.
1. CC1CC(=O)C=C(c2ccccc2)O1 (stereo not given)
2. N#C/C([S-])=C(/[S-])C#N.N#C/C([S-])=C(/[S-])C#N.[Co].c1ccc([P+](c2ccccc2)(c2ccccc2)c2ccccc2)cc1
3. Cc1cccc(Cl)c1NC(=O)Cn1cccc1
4. COc1ccc(OC)c(CCl)c1

Response given:
101 % of control
121 % of control
94 % of control
97 % of control
